Consider the following molecules; for each one, report its normalized growth.
experiment: chemical genetic growth profiling, strain panel (AID 1159580);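 note: tested at 20 µM; growth read once vehicle control cultures reached saturation at 30 °C; 1 = growth at the plate median or of vehicle wells; lower values mean less growth of the strain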; conditions: S. cerevisiae deletion strains, growth OD, locus YMR231W, strain pep5, hits give low values
Screen size: about 5,500 compounds; about 2,000 (36%) were called active. About 18% were inconclusive and are not listed. The list shows a part of the results.
One number for each entry.

// normalized growth lookup, molecule = C=Cc1c2[nH]c(c1C)C=c1[nH]c(c(C)c1C=C)=CC1N=C(C=c3[nH]c(c(C)c3CCC(=O)O)=C2)C(CCC(=O)O)=C1C (stereo not drawn) , result: 1.02

// normalized growth lookup, molecule = CC(CCc1ccccc1)NC(C)C(O)c1ccc(O)cc1 (stereo not drawn) , result: 1

# next molecule below
// normalized growth lookup, molecule = CN[C@@H](C)[C@@H](O)c1ccccc1 , result: 0.998

* * *

test: chemical genetic growth profiling, strain panel (AID 1159580); settings: S. cerevisiae deletion strains, growth OD, locus YPL031C, strain PHO85, hits give low values
About 2,000 (36%) of roughly 5,500 compounds were called active. Not shown: some 18% with an inconclusive outcome. This is one part of the list.
Under this convention, YES denotes normalized growth strictly below 0.9 and NO denotes normalized growth at or above 0.9.

Example entries begin here.
IN: Determine whether this compound shows normalized growth lower than 0.9 (ties excluded): Cc1cc(C(=O)Nc2ccc(Cl)cc2)nn1C(C)(C)C
OUT: NO

IN: Determine whether this compound shows normalized growth lower than 0.9 (ties excluded): COc1cc2c(cc1OC)C(C)N(C(=O)c1sc3ccccc3c1Cl)CC2 (stereo unspecified)
OUT: NO

IN: Determine whether this compound shows normalized growth lower than 0.9 (ties excluded): Cc1c(Cc2ccc(F)cc2)c(=O)oc2cc(O)ccc12
OUT: NO

IN: Determine whether this compound shows normalized growth lower than 0.9 (ties excluded): CC(=O)CSc1nnc(-c2ccc(C(C)(C)C)cc2)n1-c1ccc(Cl)cc1
OUT: NO

IN: Determine whether this compound shows normalized growth lower than 0.9 (ties excluded): O=c1c(Sc2ccc(Cl)cc2)c(Sc2ccc(Cl)cc2)c1=O
OUT: YES

IN: Determine whether this compound shows normalized growth lower than 0.9 (ties excluded): Cc1ccc2nc(-c3ccc(Cl)cc3)cn2c1
OUT: NO

IN: Determine whether this compound shows normalized growth lower than 0.9 (ties excluded): O=C(CSc1nnnn1-c1ccccc1)c1ccccc1
OUT: YES

IN: Determine whether this compound shows normalized growth lower than 0.9 (ties excluded): COc1cc(NC(=S)NC(=O)c2ccccc2)c(OC)cc1Cl
OUT: NO

IN: Determine whether this compound shows normalized growth lower than 0.9 (ties excluded): O=C(Oc1ccc(C(F)(F)F)cc1[N+](=O)[O-])c1cccc(Cl)c1
OUT: YES

IN: Determine whether this compound shows normalized growth lower than 0.9 (ties excluded): COc1ccc(CN2CSC(=S)N(Cc3ccc(OC)cc3)C2)cc1
OUT: NO

Below: the item to evaluate.
IN: Determine whether this compound shows normalized growth lower than 0.9 (ties excluded): O=C(N/C=C/c1ccsc1)Nc1cc(C(F)(F)F)cc(C(F)(F)F)c1
OUT: YES

* * *

assay: chemical genetic growth profiling, strain panel (AID 1159580);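 note: tested at 20 µM; growth read once vehicle control cultures reached saturation at 30 °C; 1 = growth at the plate median or of vehicle wells; lower values mean less growth of the strain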; conditions: S. cerevisiae deletion strains, growth OD, locus YOR184W, strain ser1, hits give low values
Hit rate of the full screen: of about 5,500 compounds, about 2,000 (36%) were called active. About 18% were inconclusive and are not listed. This is one part of the list.
Consider the following compounds; for each one, report its normalized growth.
Give bare numbers.

As a guide, the following entries are already answered.
// normalized growth lookup, compound = CCC(=O)O[C@H]1[C@H](O[C@@H]2[C@@H](C)[C@H](O[C@H]3C[C@@](C)(OC)[C@@H](O)[C@H](C)O3)[C@@H](C)C(=O)O[C@H](CC)[C@@](C)(O)[C@H](O)[C@@H](C)C(=O)[C@H](C)C[C@@]2(C)O)O[C@H](C)C[C@@H]1N(C)C , result: 0.936

// normalized growth lookup, compound = CC[C@H]1OC(=O)[C@H](C)[C@@H](O[C@H]2C[C@@](C)(OC)[C@@H](O)[C@H](C)O2)[C@H](C)[C@@H](O[C@@H]2O[C@H](C)C[C@H](N(C)C)[C@H]2O)[C@](C)(O)C[C@@H](C)CN(C)[C@H](C)[C@@H](O)[C@]1(C)O , result: 0.973

// normalized growth lookup, compound = C[C@@H]1[C@H]2[C@H](O[C@@H]3O[C@H](CO)[C@@H](O)[C@H](O)[C@H]3O)OC=C(C(=O)O)[C@H]2C[C@@H]1O , result: 1.02

// normalized growth lookup, compound = CC1(C)OC(=O)NC1=O , result: 0.966

// normalized growth lookup, compound = CCOC(=O)C(=O)C1(C(=O)OCC)Oc2cc(OC)cc(OC)c2C(=O)C1c1ccccc1 (centres undefined) , result: 0.876

Could you tell me normalized growth for each of these compounds? They are listed below.
1. Cc1cc(O)c(C)c(O)c1C(=O)O
2. CC(C)OC(=O)C(C)(C)Oc1ccc(C(=O)c2ccc(Cl)cc2)cc1
3. CN(C)C(=S)SSC(=S)N(C)C
4. O=C(CC[N+](=O)[O-])OC[C@H]1O[C@@H](O)[C@H](OC(=O)CC[N+](=O)[O-])[C@@H](OC(=O)CC[N+](=O)[O-])[C@@H]1OC(=O)CC[N+](=O)[O-]

OUT:
1. 1.05
2. 0.909
3. 0.0681
4. 1.03

* * *

assay: chemical genetic growth profiling, strain panel (AID 1159580);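 note: tested at 20 µM; growth read once vehicle control cultures reached saturation at 30 °C; 1 = growth at the plate median or of vehicle wells; lower values mean less growth of the strain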; settings: S. cerevisiae deletion strains, growth OD, locus YKR001C, strain vps1
Hit rate of the full screen: of about 5,500 compounds, about 2,000 (36%) were called active. About 18% were inconclusive and are not listed. Rule as the data show it: active = normalized growth mostly below about 0.91 (no sharp cut-off); inconclusive = no clear call, values can overlap the other calls; inactive = mostly above about 0.92. The list shows a part of the results.
Form entry, call: pick from yes = active, no = inactive

Example entries begin here.
IN: Hello, I am checking results. What call was entered for COc1cc2c(cc1OC)C1C(=O)c3c(O)cc4c(c3OC1CO2)C=CC(C)(C)O4 (centres undefined) ?
OUT: yes

IN: Hello, I am checking results. What call was entered for C=C(C)C1CNC(C(=O)O)C1CC(=O)O (centres undefined) ?
OUT: no

IN: Hello, I am checking results. What call was entered for CC(=O)[C@H]1CCC2C3CCC4=CC(=O)CC[C@]4(C)C3CC[C@@]21C (some centres undefined) ?
OUT: yes

***
IN: Hello, I am checking results. What call was entered for C=Cc1c2[nH]c(c1C)C=c1[nH]c(c(C)c1C=C)=CC1N=C(C=c3[nH]c(c(C)c3CCC(=O)O)=C2)C(CCC(=O)O)=C1C (centres undefined) ?
OUT: no

* * *

assay: chemical genetic growth profiling, strain panel (AID 1159580);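 note: tested at 20 µM; growth read once vehicle control cultures reached saturation at 30 °C; 1 = growth at the plate median or of vehicle wells; lower values mean less growth of the strain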; settings: S. cerevisiae deletion strains, growth OD, locus YOR231W, strain MKK1, hits give low values
Screen size: about 5,500 compounds; about 2,000 (36%) were called active. Not shown: some 18% with an inconclusive outcome. The list shows a part of the results.
Consider the following compounds; for each one, report its normalized growth.

As a guide, the following entries are already answered.
// normalized growth lookup, compound = Cc1cccc(C)c1OCC(C)N (stereo not given) , result: 0.999 (inactive)

// normalized growth lookup, compound = COc1cc(/C=C/C(=O)/C=C(O)/C=C/c2ccc(O)c(OC)c2)ccc1O , result: 0.575 (active)

// normalized growth lookup, compound = CC(N)C(=O)NC(Cc1ccccc1)C(=O)O (stereo not given) , result: 0.982 (inactive)

// normalized growth lookup, compound = CC1=C(/C=C/C(C)=C/C=C/C(C)=C/C=C/C=C(C)/C=C/C=C(C)/C=C/C(=O)[C@]2(C)C[C@@H](O)CC2(C)C)C(C)(C)C[C@H](O)C1 , result: 1.01 (inactive)

// normalized growth lookup, compound = CC(C(=O)O)c1cccc(C(=O)c2ccccc2)c1 (stereo not given) , result: 1.04 (inactive)

// normalized growth lookup, compound = COc1cc2c(cc1OC)C(C)N(C(=O)c1sc3ccccc3c1Cl)CC2 (stereo not given) , result: 0.891 (inactive)

// normalized growth lookup, compound = N=c1ccn2c(n1)O[C@@H]1C2O[C@H](CO)[C@H]1O (stereo not given in full) , result: 0.999 (inactive)

// normalized growth lookup, compound = CN1CCC(=C2c3ccccc3Sc3ccccc32)CC1 , result: 0.99 (inactive)

// normalized growth lookup, compound = Cc1nnsc1C(=O)NNc1c(Cl)cccc1Cl , result: 0.925 (inactive)

// normalized growth lookup, compound = O=C(NNc1ccccc1F)c1ccno1 , result: 0.888 (inactive)

Could you tell me normalized growth for each of these compounds? They are listed below.
1. O=C1C=CC(=C(c2ccc(O)cc2)c2ccc(O)cc2)C=C1
2. COc1cc(NC(C)CCCN)c2ncccc2c1 (stereo not given)
3. CC[C@H](/C=C/C(C)C1CCC2C3CCC4=CC(=O)CC[C@]4(C)C3CC[C@]12C)C(C)C (stereo not given in full)
4. CN1CCC(=C2c3ccccc3CC(=O)c3sccc32)CC1
5. CN(C)c1ccc(C(=C2C=CC(=[N+](C)C)C=C2)c2ccc(N(C)C)cc2)cc1
6. Cc1cc(Cl)ccc1NNC(=O)c1ccno1
7. S=c1nc[nH]c2nc[nH]c12

OUT:
1.04 (inactive)
1 (inactive)
1.08 (inactive)
1.02 (inactive)
1.28 [resistant] (active)
0.899 (inactive)
1 (inactive)

Measured values drawn from PubChem BioAssay AID1159580 for this set.
